- Test system: Rattus norvegicus
- assay method text: Anti-inflammatory activity in Rattus norvegicus (rat) assessed as inhibition of carrageenan-induced paw edema at 10 mg/kg, po measured at 2 hr post carrageenan-challenge (reference value: 5.7+/- 0.32%)
- Assay type: functional
Mark true for reported inhibition in vivo at 10 mg/kg of 40% or greater; mark false for anything smaller.

Identify whether the reported inhibition in vivo at 10 mg/kg of the following compound is 40% or greater: "O=c1c2ccccc2nc(N/N=C/c2ccccc2Cl)n1Cc1ccccc1" false

Decide: is the reported value of inhibition in vivo at 10 mg/kg for "O=c1c2ccccc2nc(N/N=C/c2ccccc2[N+](=O)[O-])n1Cc1ccccc1" equal to or greater than 40%? false

Answer whether inhibition in vivo at 10 mg/kg of "O=c1c2ccccc2nc(N/N=C/c2ccc(Cl)cc2)n1Cc1ccccc1" is greater than or equal to 40%. false

Hi team, for "CCN(CC)C(=S)Nn1c(-c2ccccc2)nc2ccccc2c1=O" , is the recorded inhibition in vivo at 10 mg/kg at or above 40%? false

Evaluate "Cc1ccc(/C=N/Nc2nc3ccccc3c(=O)n2Cc2ccccc2)cc1" : inhibition in vivo at 10 mg/kg at minimum 40%? true

Is inhibition in vivo at 10 mg/kg for "O=c1c2ccccc2nc(NN=C2CCCCC2)n1Cc1ccccc1" at or above 40%? true

Is it the case that "Cc1ccccc1/C=N/Nc1nc2ccccc2c(=O)n1Cc1ccccc1" has inhibition in vivo at 10 mg/kg reaching or exceeding 40%? true

Dear colleague, could you confirm whether "O=C1Nc2ccccc2/C1=N\Nc1nc2ccccc2c(=O)n1Cc1ccccc1" has inhibition in vivo at 10 mg/kg at or above 40%? true

Has "COc1ccc(/C=N/Nc2nc3ccccc3c(=O)n2Cc2ccccc2)cc1" a recorded inhibition in vivo at 10 mg/kg greater than or equal to 40%? false

Please tell me: is the compound "CCC(CC)=NNc1nc2ccccc2c(=O)n1Cc1ccccc1" at or over 40% in terms of inhibition in vivo at 10 mg/kg? true

Item "C/C(=N\Nc1nc2ccccc2c(=O)n1Cc1ccccc1)c1ccccc1" with inhibition in vivo at 10 mg/kg of 40% or above? true

Answer whether inhibition in vivo at 10 mg/kg of "O=c1c2ccccc2nc(NN=C(c2ccccc2)c2ccccc2)n1Cc1ccccc1" is greater than or equal to 40%. true

inhibition in vivo at 10 mg/kg >= 40% for "CCC/C(C)=N/Nc1nc2ccccc2c(=O)n1Cc1ccccc1" ? true

Threshold query (inhibition in vivo at 10 mg/kg >= 40%) on "CC/C(C)=N/Nc1nc2ccccc2c(=O)n1Cc1ccccc1" true

Hi, just wondering whether "Cc1nc2ccccc2c(=O)n1NC(=S)n1cccc1" shows inhibition in vivo at 10 mg/kg of 40% or higher. true

Check this compound for inhibition in vivo at 10 mg/kg at or above 40%: "O=c1c2ccccc2nc(N/N=C/c2ccc([N+](=O)[O-])cc2)n1Cc1ccccc1" false

Taken from ChEMBL document CHEMBL3046395.
